Hey, just so you know, these numbers are from patent US11046672B2.

# Experimental system: VEGFR2 (Homo sapiens (Human), UniProt P35968)
# Sequence (P35968 20-1356): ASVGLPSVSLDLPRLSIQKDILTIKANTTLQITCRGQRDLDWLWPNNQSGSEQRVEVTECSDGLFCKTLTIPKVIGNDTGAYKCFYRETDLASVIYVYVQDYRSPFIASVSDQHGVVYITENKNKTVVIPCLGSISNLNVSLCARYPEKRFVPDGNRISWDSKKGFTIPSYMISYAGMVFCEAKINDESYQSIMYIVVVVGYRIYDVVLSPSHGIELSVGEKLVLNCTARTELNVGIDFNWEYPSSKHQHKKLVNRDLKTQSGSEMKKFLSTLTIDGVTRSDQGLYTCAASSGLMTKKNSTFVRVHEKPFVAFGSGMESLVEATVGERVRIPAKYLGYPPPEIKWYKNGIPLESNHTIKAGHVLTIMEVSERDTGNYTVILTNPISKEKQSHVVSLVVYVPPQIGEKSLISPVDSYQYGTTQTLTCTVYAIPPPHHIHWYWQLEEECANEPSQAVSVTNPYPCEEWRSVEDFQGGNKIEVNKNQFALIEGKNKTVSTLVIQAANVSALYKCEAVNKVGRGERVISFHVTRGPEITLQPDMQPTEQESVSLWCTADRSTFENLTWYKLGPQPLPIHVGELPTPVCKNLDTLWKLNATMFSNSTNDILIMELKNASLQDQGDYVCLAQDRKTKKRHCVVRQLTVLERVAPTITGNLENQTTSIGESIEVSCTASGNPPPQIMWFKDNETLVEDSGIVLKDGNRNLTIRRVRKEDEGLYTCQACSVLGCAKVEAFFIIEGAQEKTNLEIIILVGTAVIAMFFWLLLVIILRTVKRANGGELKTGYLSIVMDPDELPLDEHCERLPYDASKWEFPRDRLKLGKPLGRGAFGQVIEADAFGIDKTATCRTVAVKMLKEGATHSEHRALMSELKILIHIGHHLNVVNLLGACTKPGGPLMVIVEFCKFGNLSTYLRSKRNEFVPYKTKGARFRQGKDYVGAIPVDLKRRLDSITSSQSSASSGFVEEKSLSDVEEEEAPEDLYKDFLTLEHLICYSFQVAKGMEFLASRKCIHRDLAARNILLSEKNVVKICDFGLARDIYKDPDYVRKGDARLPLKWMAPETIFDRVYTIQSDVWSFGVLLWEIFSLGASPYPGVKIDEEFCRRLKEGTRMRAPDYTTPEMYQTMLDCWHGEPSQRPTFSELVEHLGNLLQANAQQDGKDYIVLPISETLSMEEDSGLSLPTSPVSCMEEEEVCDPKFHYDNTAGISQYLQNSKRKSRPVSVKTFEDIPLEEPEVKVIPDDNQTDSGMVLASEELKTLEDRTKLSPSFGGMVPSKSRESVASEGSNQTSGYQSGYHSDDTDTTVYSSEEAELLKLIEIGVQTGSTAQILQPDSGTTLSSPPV
# Protocol details: VEGF165 induced phosphorylation of VEGFR2 in endothelial cells (TeloHAEC, HTRF)
# Measurement setup: HAEC cells; n = 1 unless otherwise indicated
Property name: IC50 (nM)

Molecule	Units of measure	IC50
COC(=O)c1cc2c(cc1C)/C(=C(/Nc1ccc(C(=O)NOCCCN3CCN(C)CC3)cc1)c1ccccc1)C(=O)N2 [Example 64]	nM	32.2
COC(=O)c1ccc2c(c1)NC(=O)/C2=C(\Nc1ccc(C(=O)N(C)OC)cc1)c1ccccc1 [Example 1]	nM	32.2

---

# Protocol details: Pharmacokinetic measurements in mice (intravenous and intra-nasal dosing)
# Format: in vivo
# Measurement setup: male, C57BL/6J, lung/plasma, iv; mouse, i.v. dosing, 0.1 h; read-out: lung/plasma ratio at time(h)
Property name: Kp at 0.1 h

Sample smiles	Kp at 0.1 h
COC(=O)c1cc2c(cc1C)/C(=C(/Nc1ccc(C(=O)NOCCN3CCN(C)CC3)cc1)c1ccccc1)C(=O)N2	11
COC(=O)c1cc2c(cc1C)/C(=C(/Nc1ccc(C(=O)NOCCN(C)C)c(C)c1)c1ccccc1)C(=O)N2	13

---

Parameter: Cell viability at 100 nM (%). Scope: all listed entries.
# Test system: MRC5 cells
# Protocol details: Cell viability assay in MRC5 cells (MTT)
# Measurement setup: 100 nM
Numeric only. Scale: %

Compound	Quantitative result
COC(=O)c1ccc2c(c1)NC(=O)/C2=C(\Nc1ccc(C(=O)NOCCN2CCOCC2)cc1)c1ccccc1 [Example 12]	104.8

Shift focus to the following entry.
(Q) What value of measured Cell viability at 100 nM (%) is listed for COC(=O)c1ccc2c(c1)NC(=O)/C2=C(\Nc1ccc(C(=O)NOCCN2CCN(C)CC2)cc1)c1ccccc1 [Example 4] ?
(A) 99.2

---

# Experimental system: PDGFRβ (Homo sapiens (Human))
# Measurement setup: read-out: Ki PDGFRβ; mean, n = 2 unless otherwise indicated
Property name: Ki (nM)

Solved cases below.
Molecule	Ki [nM]
COC(=O)c1ccc2c(c1)NC(=O)/C2=C(\Nc1ccc(C(=O)NOCCN2CCN(C)CC2)cc1)c1ccccc1 [Example 4]	9.66
COC(=O)c1ccc2c(c1)NC(=O)/C2=C(\Nc1ccc(C(=O)NOCCN2CC[C@H](N(C)C)C2)cc1)c1ccccc1 [Example 38]	6.91
COC(=O)c1ccc2c(c1)NC(=O)/C2=C(\Nc1ccc(C(=O)N2CCO2)cc1)c1ccccc1 [Example 37]	244
COC(=O)c1cc2c(cc1C)/C(=C(/Nc1ccc(C(=O)N(OC)C3CCN(C)CC3)cc1)c1ccccc1)C(=O)N2 [Example 35]	22.1
COC(=O)c1ccc2c(c1)NC(=O)/C2=C(\Nc1ccc(C(=O)NOCCN2CCNC(=O)C2)cc1)c1ccccc1 [Example 42]	7.06

(P) COC(=O)c1cc2c(cc1C)/C(=C(/Nc1ccc(C(=O)NOCCCN(C)C)cc1)c1ccccc1)C(=O)N2 [Example 27]
(Q) COC(=O)c1ccc2c(c1)NC(=O)/C2=C(\Nc1ccc(C(=O)NOCCN2CCS(=O)(=O)CC2)cc1)c1ccccc1 [Example 41]
(Q) Lowest Ki? choose P or Q Refer to your chosen item by its label in the answer.
(A) P

---

# Experimental system: PDGFRβ (Homo sapiens (Human), UniProt P09619)
# Sequence (P09619 33-1106): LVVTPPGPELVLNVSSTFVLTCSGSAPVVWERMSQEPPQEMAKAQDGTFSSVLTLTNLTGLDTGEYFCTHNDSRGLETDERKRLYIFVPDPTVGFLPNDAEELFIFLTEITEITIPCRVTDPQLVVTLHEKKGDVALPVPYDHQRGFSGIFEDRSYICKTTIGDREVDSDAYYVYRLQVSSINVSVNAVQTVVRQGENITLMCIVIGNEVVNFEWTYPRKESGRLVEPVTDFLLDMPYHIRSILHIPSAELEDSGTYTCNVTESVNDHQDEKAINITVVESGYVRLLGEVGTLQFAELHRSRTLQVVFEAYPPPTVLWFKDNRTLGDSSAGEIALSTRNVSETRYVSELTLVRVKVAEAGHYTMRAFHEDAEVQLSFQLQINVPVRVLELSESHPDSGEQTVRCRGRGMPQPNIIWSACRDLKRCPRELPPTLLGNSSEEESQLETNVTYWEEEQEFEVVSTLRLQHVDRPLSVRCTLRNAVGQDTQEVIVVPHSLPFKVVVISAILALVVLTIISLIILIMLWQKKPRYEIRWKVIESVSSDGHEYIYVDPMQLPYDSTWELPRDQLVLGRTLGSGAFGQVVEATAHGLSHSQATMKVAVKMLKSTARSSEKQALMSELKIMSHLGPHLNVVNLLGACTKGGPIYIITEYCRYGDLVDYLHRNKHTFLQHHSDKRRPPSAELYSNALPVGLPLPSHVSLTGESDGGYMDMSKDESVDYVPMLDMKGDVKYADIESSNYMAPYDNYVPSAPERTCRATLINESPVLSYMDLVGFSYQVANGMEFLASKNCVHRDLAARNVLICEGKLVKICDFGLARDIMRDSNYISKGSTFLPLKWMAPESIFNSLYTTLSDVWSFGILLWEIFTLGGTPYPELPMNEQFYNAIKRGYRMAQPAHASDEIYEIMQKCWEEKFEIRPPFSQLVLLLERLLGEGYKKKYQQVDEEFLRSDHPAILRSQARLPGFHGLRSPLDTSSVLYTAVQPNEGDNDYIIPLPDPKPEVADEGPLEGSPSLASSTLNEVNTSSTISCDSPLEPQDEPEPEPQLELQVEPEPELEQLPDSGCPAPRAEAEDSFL
# Measurement setup: read-out: Ki PDGFRβ; mean, n = 2 unless otherwise indicated
pKi: −log10 of the molar value.
Property name: pKi

Solved cases below.
Compound	Experimental system	pKi
COC(=O)c1cc2c(cc1C)/C(=C(/Nc1ccc(C(=O)N(C)OCCN(C)CCO)cc1)c1ccccc1)C(=O)N2 [Example 56]	PDGFRβ (Homo sapiens (Human), UniProt P09619)	8.14
COC(=O)c1ccc2c(c1)NC(=O)/C2=C(\Nc1ccc(C(=O)NOCCN2CCN(C)CC2)c(C)c1)c1ccccc1 [Example 17]	PDGFRβ (Homo sapiens (Human), UniProt P09619)	7.93
COC(=O)c1ccc2c(c1)NC(=O)/C2=C(\Nc1ccc(C(=O)N(C)OCCN2CCN(C)CC2)c(C)c1)c1ccccc1 [Example 18]	PDGFRβ (Homo sapiens (Human), UniProt P09619)	7.96
COC(=O)c1cc2c(cc1C)/C(=C(/Nc1ccc(C(=O)N(C)OCCN3CC4CC(C3)N4)cc1)c1ccccc1)C(=O)N2 [Example 66]	PDGFRβ (Homo sapiens (Human), UniProt P09619)	7.80
COC(=O)c1cc2c(cc1C)/C(=C(/Nc1ccc(C(=O)NOCCCN3CCCCC3)cc1)c1ccccc1)C(=O)N2 [Example 53]	PDGFRβ (Homo sapiens (Human), UniProt P09619)	7.69

(1) COCCN1CCN(CCONC(=O)c2ccc(N/C(=C3\C(=O)Nc4cc(C(=O)OC)ccc43)c3ccccc3)cc2)CC1 [Example 46]
(2) COC(=O)c1cc2c(cc1C)/C(=C(/Nc1ccc(C(=O)NOCCN3CCN(C)CC3)cc1)c1ccccc1)C(=O)N2 [Example 6]
(Q) Given the listed records, identify the one among 1 and 2 with higher pKi. Refer to your chosen item by its label in the answer.
(A) 2
